Time for assorted compounds
- System: Mus musculus
- measurement-protocol: Average time for WiDr tumor xenograft to reach a diameter of 17 mm following single intravenous injection at day 0 where tumor diameter was 8 mm in mice
- Format: functional
readout: Time (days)

> print(dat)
                                   compound  target.of.assay  readout  value
1  COc1cc2c(cc1OCCCOc1cc3c(cc1OC)C(=O)N1CCC[C@H]1C=N3)N=C[C@@H]1CCCN1C2=O [DSB-120]     Mus musculus     Time   22.8
2  COc1cc2c(cc1OCCCCCC(=O)N1C[C@H](CCl)c3c1cc(O)c1ccccc31)N=CC1CCCN1C2=O (single isomer, unassigned)     Mus musculus     Time   24.4
3  COc1cc2c(cc1OCCCC(=O)N1C[C@@H](CCl)c3c1cc(O)c1ccccc31)N=C[C@@H]1CCCN1C2=O     Mus musculus     Time     26
4  COc1cc2c(cc1OCCCCCC(=O)N1C[C@@H](CCl)c3c1cc(O)c1ccccc31)N=C[C@@H]1CCCN1C2=O     Mus musculus     Time   40.8
